Listed next: entries and their corresponding log10 of IC50.
# assayedTarget: Epidermal growth factor receptor (Homo sapiens, UniProt P00533)
# Sequence (P00533 whole entry): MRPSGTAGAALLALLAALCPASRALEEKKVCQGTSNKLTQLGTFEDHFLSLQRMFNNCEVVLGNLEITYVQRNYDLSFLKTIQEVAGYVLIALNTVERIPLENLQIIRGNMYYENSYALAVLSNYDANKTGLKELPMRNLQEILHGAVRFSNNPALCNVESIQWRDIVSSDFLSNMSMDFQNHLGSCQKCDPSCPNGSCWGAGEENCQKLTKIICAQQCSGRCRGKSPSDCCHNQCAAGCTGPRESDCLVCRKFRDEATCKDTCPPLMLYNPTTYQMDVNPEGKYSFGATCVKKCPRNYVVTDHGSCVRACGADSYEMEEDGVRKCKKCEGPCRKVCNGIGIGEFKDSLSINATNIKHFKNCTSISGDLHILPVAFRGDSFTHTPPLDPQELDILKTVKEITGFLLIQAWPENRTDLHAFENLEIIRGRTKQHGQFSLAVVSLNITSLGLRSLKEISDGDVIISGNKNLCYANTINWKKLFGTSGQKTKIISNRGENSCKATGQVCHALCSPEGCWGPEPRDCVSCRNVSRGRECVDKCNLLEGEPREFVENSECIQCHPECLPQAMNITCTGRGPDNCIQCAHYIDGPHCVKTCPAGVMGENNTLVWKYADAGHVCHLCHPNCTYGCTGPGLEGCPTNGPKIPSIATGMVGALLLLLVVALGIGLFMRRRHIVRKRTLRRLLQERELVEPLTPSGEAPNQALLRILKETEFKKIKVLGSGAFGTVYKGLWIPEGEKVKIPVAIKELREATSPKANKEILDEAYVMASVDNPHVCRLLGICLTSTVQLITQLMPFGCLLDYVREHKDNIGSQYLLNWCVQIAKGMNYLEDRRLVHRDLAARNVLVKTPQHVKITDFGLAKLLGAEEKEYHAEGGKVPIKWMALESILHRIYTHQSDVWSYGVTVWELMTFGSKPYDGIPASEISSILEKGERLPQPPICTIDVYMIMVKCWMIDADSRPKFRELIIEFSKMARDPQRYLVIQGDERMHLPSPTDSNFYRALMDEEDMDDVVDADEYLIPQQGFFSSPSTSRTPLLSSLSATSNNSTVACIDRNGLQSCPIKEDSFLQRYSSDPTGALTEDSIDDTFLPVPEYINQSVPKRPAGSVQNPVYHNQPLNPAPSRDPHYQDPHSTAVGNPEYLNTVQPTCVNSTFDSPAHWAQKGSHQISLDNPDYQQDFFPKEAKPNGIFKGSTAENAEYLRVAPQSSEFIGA
# assaySummary: Inhibition of EGFR measured as pGAT-biotin peptide phosphorylation in presence of 2.0 uM ATP by HTRF assay
# Assay type: functional
Record value = log10 of IC50 given in µM.

1. COc1cc2c(cc1OC)Oc1ncnc(Nc3ccc4c[nH]nc4c3)c1NC2 :: 0.08

Q: Tell me the measured log10 of IC50 of COc1cc2c(cc1OC)Sc1nc(C)nc(Nc3ccc4ccccc4c3)c1NC2 , please.
Result: 1.23

Q: Query (compound): COc1cc2c(cc1OC)Oc1ncnc(Oc3ccc(F)c(Cl)c3)c1N(C)C2 ; field requested: log10 of IC50
Result: 1.03
